Reference source for all entries: patent US20030148958A1

Molecular target: T1, CRF2R
T1 sequence (Q13324 whole entry, species assumed, looked up): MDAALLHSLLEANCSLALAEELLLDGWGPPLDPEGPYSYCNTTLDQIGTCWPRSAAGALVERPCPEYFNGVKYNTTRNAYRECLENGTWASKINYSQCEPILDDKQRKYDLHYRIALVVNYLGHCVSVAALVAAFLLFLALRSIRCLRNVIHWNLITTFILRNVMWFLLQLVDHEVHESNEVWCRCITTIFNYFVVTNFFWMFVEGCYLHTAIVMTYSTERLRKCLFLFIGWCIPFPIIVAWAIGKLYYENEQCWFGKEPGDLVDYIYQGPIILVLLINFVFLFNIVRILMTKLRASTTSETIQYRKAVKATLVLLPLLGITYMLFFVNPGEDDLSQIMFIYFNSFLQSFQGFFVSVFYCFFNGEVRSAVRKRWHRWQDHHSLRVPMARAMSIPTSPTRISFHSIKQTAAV
Assay: cell-based or functional assay
Ends that are not written are not given here.
In this section we review reported CRF2R EC50 values for a set of binders.

binder: HHHHHHIVLSLDVPIGLLQILLEQARARAAREQATTNARILARN-NH2 [SEQ ID NO 296]
unit-of-measurement: µM
CRF2R EC50: 0.00666
//
binder: ZGPPISIDLPFQLLRILIEIEKQEKEKQQAANNALLLAT (C-terminal amide) [SEQ ID NO 358]
unit-of-measurement: µM
CRF2R EC50: 0.00556
//
binder: DNPSLSIDLPLLLLRTLLELEKTQSQRERAEQNAIIFASV-NH2 [SEQ ID NO 347]
unit-of-measurement: µM
CRF2R EC50: 0.0224
//
binder: ZGPPISIDLPLQLLRKMIEIEKQEKEKQQAANNALLLDTI (not fully specified; C-terminal amide) [SEQ ID NO 248]
unit-of-measurement: µM
CRF2R EC50: 0.0196
//
binder: ZGPPISIDLPLELLRKMIEIEKQEKEKQQAANNALLLATI (C-terminal amide) [SEQ ID NO 234]
unit-of-measurement: µM
CRF2R EC50: 0.0206
//
binder: IVLSLDVPIGLLQILLEQARARAAREQATTNARILARVM-NH2 [SEQ ID NO 356]
unit-of-measurement: µM
CRF2R EC50: 0.083
